Experiment: Pharmacokinetics in rats, IV and oral
Assay type: in vivo, SD rats
Settings: male, SD, plasma; rat, PO, 30 mg/kg
measurement.name: Tmax (h)
Provide the reading as a plain figure in h.

Entry under test: C=CC(=O)N1CCN(c2c(C#N)cnc3c(F)c(-c4ccc(F)c5sc(N)nc45)c(Cl)cc23)CC1 . Its Tmax was 1.33

* * *

Target: CYP1A2 (Homo sapiens, UniProt P05177)
Construct: Human liver microsomes (Corning, Cat #452161); tissue Corning 452161; host or cells: human liver microsomes
Sequence (P05177 whole entry): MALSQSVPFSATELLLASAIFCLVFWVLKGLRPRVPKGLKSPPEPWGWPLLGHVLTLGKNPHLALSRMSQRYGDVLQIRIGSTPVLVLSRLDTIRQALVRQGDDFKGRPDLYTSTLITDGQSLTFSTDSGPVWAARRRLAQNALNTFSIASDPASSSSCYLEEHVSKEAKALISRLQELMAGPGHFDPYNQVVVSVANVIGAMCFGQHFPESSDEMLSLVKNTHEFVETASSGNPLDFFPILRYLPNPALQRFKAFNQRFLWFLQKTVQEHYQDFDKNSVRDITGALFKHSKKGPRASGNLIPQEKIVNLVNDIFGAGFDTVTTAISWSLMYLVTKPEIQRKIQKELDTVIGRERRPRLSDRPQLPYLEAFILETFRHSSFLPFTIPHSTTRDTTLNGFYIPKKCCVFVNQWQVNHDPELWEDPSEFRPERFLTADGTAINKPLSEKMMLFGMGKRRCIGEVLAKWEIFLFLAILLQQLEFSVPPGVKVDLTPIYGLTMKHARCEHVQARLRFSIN
Assay: CYP inhibition in human liver microsomes
Assay type: in vitro ADME
Details: pH 7.4, read-out: CYP inhibition rate (%) 1A2
Listed here: items and their measured inhibition at 10 min, 10 µM.

Here's what some known entries look like.
compound	measurement.name	observed.value
C=CC(=O)N1CCN(c2nc(=O)n(-c3c(C)ccnc3C(C)C)c3nc(-c4c(O)cccc4F)c(F)cc23)[C@@H](C)C1 (atropisomer, axis not shown) [AMG510, reference compound]	inhibition at 10 min, 10 µM	10.3%
C=CC(=O)N1CCN(c2c(C#N)cnc3c(F)c(-c4ccc(F)c5sc(N)nc45)c(Cl)cc23)C[C@H]1C [Example 8]	inhibition at 10 min, 10 µM	17.6%
C=CC(=O)N1CCN(c2ncnc3c(F)c(-c4ccc(F)c5sc(N)nc45)c(Cl)cc23)CC1 [Ref. Comp. A, reference compound]	inhibition at 10 min, 10 µM	73%

Entry under test: C=CC(=O)N1CCN(c2c(C#N)cnc3c(F)c(-c4ccc(F)c5sc(N)nc45)c(Cl)cc23)CC1 [Example 9] . Its inhibition at 10 min, 10 µM was 13.6%

* * *

Experiment: Pharmacokinetics in rats, IV and oral
Type: in vivo, SD rats
Conditions: male, SD, plasma; rat, IV, 3 mg/kg
measurement.name: Vd (L/kg)
Provide the reading as a plain figure in L/kg.

Entry under test: C=CC(=O)N1CCN(c2c(C#N)cnc3c(F)c(-c4ccc(F)c5sc(N)nc45)c(Cl)cc23)CC1 . Its Vd was 0.63

* * *

Test: Pharmacokinetics in rats, IV and oral
Format: in vivo, SD rats
Conditions: male, SD, plasma; rat, IV, 3 mg/kg
measurement.name: half-life
Param answer (str): number followed by unit.

Entry under test: C=CC(=O)N1CCN(c2c(C#N)cnc3c(F)c(-c4ccc(F)c5sc(N)nc45)c(Cl)cc23)CC1 . Its half-life was 40.2 min

These data points were gathered from patent US20230406849A1.
